# ASSAY_SYSTEM: human glucagon receptor (human) (UniProt P47871)
# Sequence (P47871 26-477): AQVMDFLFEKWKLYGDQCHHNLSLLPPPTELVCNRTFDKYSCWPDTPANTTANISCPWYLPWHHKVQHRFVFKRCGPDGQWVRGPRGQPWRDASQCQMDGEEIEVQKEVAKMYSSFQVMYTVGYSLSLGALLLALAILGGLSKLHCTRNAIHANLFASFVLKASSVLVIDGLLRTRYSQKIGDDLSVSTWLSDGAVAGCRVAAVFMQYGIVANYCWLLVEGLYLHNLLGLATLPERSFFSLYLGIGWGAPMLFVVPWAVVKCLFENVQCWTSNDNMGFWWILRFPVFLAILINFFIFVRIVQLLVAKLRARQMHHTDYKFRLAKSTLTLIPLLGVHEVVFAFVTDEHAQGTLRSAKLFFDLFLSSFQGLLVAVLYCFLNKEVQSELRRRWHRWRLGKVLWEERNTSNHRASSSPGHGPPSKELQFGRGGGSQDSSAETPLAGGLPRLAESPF
# METHOD: cell-based or functional assay
MEASURED_PROPERTY: cAMP Rel EC50 (1% HSA) (µM)

YXQGTFTSDXSQXLDXKAQXQFIEXLIEXGPSSGEPPPSGSEE (not fully specified; non-natural residues; Lys acylated C18 diacid via γGlu; C-term amide; synthetic construct; SITE 2: note = 2-Aminoisobutyric Acid; SITE 10: note = 3-(4-Pyridyl)-L-alanine; SITE 13: note = alpha-methyl-leucine; SITE 16: note = L-ornithine; SITE 17: note = Lysine is chemically modified through conjugation of the epsilon-amino group of the Lysine side chain with D-Glutami) [Example 1104]; 1.47
YXQGTFTSDFSKXLDKKAQXAFIEXLIEXGPSSGAPPPSGS (non-natural residues, AEEA-γGlu-C18 diacid lysine acylation, C-terminal amide; synthetic construct; SITE 2: note = 2-Aminoisobutyric Acid; SITE 13: note = alpha-methyl-leucine; SITE 17: note = Lysine is chemically modified through conjugation of the epsilon-amino group of the Lysine side chain with (2-[2-(2-Amino-ethoxy)-ethoxy]-acetyl)-(gamma-Glu)-CO-(CH2) 16-CO2H; SITE 20: n) [Example 912]; 0.955
YXQGTXTSDXXIXLDXKAQXXFIEYLIEGGPSSGEPPPSGTGE (not fully specified; C-terminal amide; synthetic construct; SITE 2: note = 2-Aminoisobutyric Acid; SITE 6: note = alpha-methyl-2-fluoro-L-phenylalanine; SITE 10: note = 3-(4-Pyridyl)-L-alanine; SITE 11: note = alpha-methyl-L-serine; SITE 13: note = alpha-methyl-leucine; SITE 16: note = L-ornithine; SITE 17: note = Lysine is chemically mo) [Example 524]; 0.464
